Tested on: U2OS
Test: Multiplex assay against U2OS
Type: toxicity, cell-based
Conditions: human, 24 h, 1 µM, compound concentration 1 uM, replicate 2
measured_endpoint: Population Hoechst High Intensity Objects (%)
Give the quantity in %, number only.

| compound | assay_result |
| --- | --- |
| CC(C)(C)c1cnc(CSc2cnc(NC(=O)C3CCNCC3)s2)o1 | 8 |
| CN(C)C/C=C/C(=O)Nc1cc2c(Nc3ccc(F)c(Cl)c3)ncnc2cc1O[C@H]1CCOC1.O=C(O)/C=C\C(=O)O.O=C(O)/C=C\C(=O)O [AFATINIB DIMALEATE] | 10 |
| CNc1oc(-c2cccc3ccccc23)nc1C#N | 6 |
| CCCn1c(=O)c2[nH]c(C34CC5CC(CC3C5)C4)nc2n(CCC)c1=O | 5 |
| CCn1c(-c2nonc2N)nc2cnc(Oc3cccc(NC(=O)c4ccc(OCCN5CCOCC5)cc4)c3)cc21 [GSK-269962A] | 2 |

Fill in: Population Hoechst High Intensity Objects (%) of `CC(C)N1CCC(C)(C)c2cc(C#Cc3ccc(C(=O)O)cc3)ccc21` is ___
4

Look up Population Hoechst High Intensity Objects (%): `Cl.Cl.NC1(c2ccc(-c3nc4ccn5c(=O)[nH]nc5c4cc3-c3ccccc3)cc2)CCC1`
8

// lookup Population Hoechst High Intensity Objects (%) for `N#Cc1cnc(Nc2cc(NC[C@H]3CNCCO3)c(C(F)(F)F)cn2)cn1`
3

Which Population Hoechst High Intensity Objects (%) value belongs to `CNC(=O)c1cc(Oc2ccc(NC(=O)Nc3cc(C(C)(C)C)nn3-c3ccc4ncccc4c3)c(F)c2)ccn1` ?
13

May I ask what Population Hoechst High Intensity Objects (%) has been recorded for `CCOc1cc(N2CCC(O)CC2)ccc1Nc1ncc2c(n1)N(C1CCCC1)CCC(=O)N2C` ?
6

I have this compound here, CCC(=O)O[C@]1(C(=O)SCF)[C@H](C)C[C@H]2[C@@H]3C[C@H](F)C4=CC(=O)C=C[C@]4(C)[C@@]3(F)[C@@H](O)C[C@@]21C [FLUTICASONE PROPIONATE] , and I need its recorded Population Hoechst High Intensity Objects (%).
11
